meta.source: ChEMBL document CHEMBL1201862

System: SK-OV-3
Assay: NCI tumour cell line growth inhibition, 48 h
Activity calls are given as the source filed them. Cut-off read from the data, not from the text of the source: active = GI50 up to about 1.1 µM and inactive = higher.
Listed below: GI50 values for each entry.
measuredAttribute: GI50

>>> observed("CCN(CC)CCCC(C)Nc1c2ccc(Cl)cc2nc2cc(Cl)ccc12 (centres undefined)")
"5.6 µM (inactive)"
>>> observed("COC(=O)/C(=N/O)C(C(=O)C=C(C)C)C(=O)C(=O)Nc1nc2ccc([N+](=O)[O-])cc2s1 (centres undefined)")
"24.8 µM (inactive)"
>>> observed("O=C1C=C(c2c(O)ccc3ccccc23)c2ccccc2C1=O")
"10.7 µM (inactive)"
>>> observed("C=C1C(=O)[C@@]23CC[C@H]4[C@@](C)(CCC[C@@]4(C)C(=O)OC)[C@@H]2CC[C@]1(O)C3")
"19.2 µM (inactive)"

---

System: HCT-116
Test: NCI tumour cell line growth inhibition, 48 h
Active and inactive are the calls of the source. No stated cut-off is given here; in the data, active = GI50 up to about 1.1 µM and inactive = higher.
measuredAttribute: GI50

>>> observed("O=C(NNC(=S)Nc1cccc(Cl)c1)c1cc(-c2ccccc2)nc2ccccc12")
"15.4 µM (inactive)"
>>> observed("CCOC(=O)C1C(c2ccc(OC)cc2)c2c(n[nH]c2O)CC1(O)OCC (centres undefined)")
"> 100 µM (inactive)"
>>> observed("CN1C2CCC1CC(CC(=O)NC(c1ccc(F)cc1)c1ccc(F)cc1)C2 (centres undefined)")
"59.7 µM (inactive)"
>>> observed("CC1=CCC[C@]2(C)C1=CC(=O)O[C@H]2c1ccoc1")
"> 100 µM (inactive)"
>>> observed("COc1ccc2nc3ccc(OC)cc3c([S+]([O-])Cc3ccc([N+](=O)[O-])cc3)c2c1 (centres undefined)")
"1.69 µM (inactive)"
>>> observed("CC(=O)OCCOCNC(=S)N/N=C/c1ccc([N+](=O)[O-])s1")
"20.1 µM (inactive)"
>>> observed("Nc1nc(N)c2cc(S(=O)(=O)c3ccc4ccccc4c3)ccc2n1")
"0.495 µM (active)"
>>> observed("CCCCCCCCCCOC1C(C(O)CNCCCN(C)C)OC2OC3(CCCCC3)OC21 (centres undefined)")
"1.99 µM (inactive)"
>>> observed("COc1cc(OC)c2c3c(OC)cc(OC)c4c(=O)c(O)c(C[C@@H](C)O)c(c5c(C[C@@H](C)O)c(O)c(=O)c1c25)c43")
"16 µM (inactive)"
>>> observed("[O-][n+]1ccc(NO)c2ccccc21")
"2.03 µM (inactive)"
>>> observed("C[C@H]1O[C@@H](O[C@H]2[C@@H](O)C[C@H](O[C@H]3[C@@H](O)C[C@H](O[C@H]4CC[C@@]5(C)[C@H](CC[C@@H]6[C@@H]5CC[C@]5(C)[C@@H](C7=CC(=O)OC7)CC[C@]65O)C4)O[C@@H]3C)O[C@@H]2C)C[C@H](O)[C@@H]1O")
"0.0165 µM (active)"
>>> observed("Cc1ccc(S(=O)(=O)O/N=C2\\CCC\\C2=C/c2ccccc2)cc1")
"12.4 µM (inactive)"
>>> observed("NC(=O)c1cn(C2OC(CO)C(O)C2O)c2nc[n+]([O-])c(N)c12 (centres undefined)")
"0.0206 µM (active)"
>>> observed("COC/C=C\\[C@@]1(O)CCCC[C@@H]1CC(OC)OC")
"22.7 µM (inactive)"
>>> observed("COC(=O)c1c(C)cccc1C1CN=NC12Cc1cccc(C)c1C2=O (centres undefined)")
"28 µM (inactive)"
>>> observed("O=C(Nc1nccs1)NS(=O)(=O)n1cnc2ccccc21")
"> 100 µM (inactive)"
>>> observed("CN(C)C1=Nc2ccccc2C(=S)N2CSCC12 (centres undefined)")
"> 100 µM (inactive)"
>>> observed("COc1ccc(NC(=O)CC(=O)n2nc(C)c(/N=N/c3ccc(C)c(C)c3)c2C)cc1")
"> 100 µM (inactive)"
>>> observed("COc1c(OC(C)=O)c(OC(C)=O)cc2c1-c1ccc(SC)c(=O)cc1C(NC(C)=O)CC2 (centres undefined)")
"0.685 µM (active)"
